- System: Fusobacterium nucleatum
- Protocol details: Inhibition of Fusobacterium nucleatum ATCC 25586 recombinant MGL R58A mutant expressed in Escherichia coli BL21 (DE3) assessed as decrease in signal intensity by measuring recovery ratio by 19F NMR based competition assay relative to wild type
- Parameters: scale not given: the % may be the effect or the level left
Activity calls are given as the source filed them. The calls are words filed in the database; no cut-off is given here.
Assay metric: Activity

Consider the following illustrative entries.
>>> result("CCOC(=O)c1nc(-c2ccc(F)cc2)no1")
"80%"
>>> result("CC(C)(C)OC(=O)N1CCC(CN)(c2ccccc2C(F)(F)F)CC1")
"Active"
>>> result("Cc1cccc2c(C(C(=O)O)C(F)(F)F)c[nH]c12 (stereo unspecified)")
"80%"
>>> result("COCCOc1ccc(C(=O)O)cc1C(F)(F)F")
"80%"

Lab note: each molecule below needs its Activity filled in.
1. O=C(O)c1cc(C(F)(F)F)nn1-c1ccccc1
2. CC(C)(C)OC(=O)N[C@H]1CC[C@H](N2Cc3cccc(F)c3C2=O)CC1

[reply]
["80%", "Active"]

----------
Please respond with reported Activity for every item in the list.
- Test system: Fusobacterium nucleatum
- Protocol details: Inhibition of Fusobacterium nucleatum ATCC 25586 recombinant MGL R58A mutant expressed in Escherichia coli BL21 (DE3) assessed as decrease in signal intensity by measuring recovery ratio by 19F NMR based competition assay relative to wild type
- Set-up: scale not given: the % may be the effect or the level left

>>> result("CC(C)(CC(=O)O)c1ccc(C(F)(F)F)cc1")
"80%"
>>> result("CC(C)(Cc1cccc(C(F)(F)F)c1)C(=O)O")
"80%"
>>> result("O=C(O)c1cn(-c2ccc(F)cc2)cn1")
"80%"

Kindly give each listed record's Activity.
1. O=C(O)c1cn(-c2ccccc2F)cn1
2. Cc1ccc2[nH]cc(C(C(=O)O)C(F)(F)F)c2c1 (configuration not stated)
3. O=C(O)c1cnc(OCC(F)(F)F)cn1

[reply]
80%
80%
80%

----------
Exercise: state measured Activity for each of the molecules provided.
- Tested on: Fusobacterium nucleatum
- Protocol details: Inhibition of Fusobacterium nucleatum ATCC 25586 recombinant MGL R58K mutant expressed in Escherichia coli BL21 (DE3) assessed as decrease in signal intensity by measuring recovery ratio by 19F NMR based competition assay relative to wild type
- Set-up: scale not given: the % may be the effect or the level left

# example entries with known answers
>>> result("O=C(O)c1cc(OC(F)(F)F)ccn1")
"80%"
>>> result("CC(C)(C)OC(=O)N1CCC(CN)(Cc2ccc(C(F)(F)F)cc2)CC1")
"50%"
>>> result("O=C(O)c1cc(C(F)(F)F)nn1-c1ccccc1")
"80%"
>>> result("O=C(O)c1cn(-c2cccc(F)c2)cn1")
"80%"
>>> result("CC(C)(CC(=O)O)c1ccc(C(F)(F)F)cc1")
"80%"
>>> result("Nc1cc(F)c(OCC2CCC2)c(F)c1")
"50%"
>>> result("O=C(O)c1cc(C(F)(F)F)nn1Cc1ccccc1")
"80%"
>>> result("CC(C)(C)OC(=O)N1CCC(CN)(c2ccc(F)cc2)CC1")
"50%"
>>> result("O=C(O)c1cnc(OCC(F)(F)F)cn1")
"80%"
>>> result("CC(C)(C)OC(=O)N1CCC(CN)(Cc2ccc(F)cc2)CC1")
"50%"

// for each molecule below, give its Activity
1. CCOC(=O)c1nc(-c2ccccc2F)no1
2. O=C(O)c1ccnc(OC(F)(F)F)c1

[reply]
1: 50%; 2: 80%

Where these numbers come from: ChEMBL document CHEMBL4837259
